target-system: Norepinephrine (NE) uptake (Rattus norvegicus)
experiment-summary: Norepinephrine (NE) uptake inhibitory activity using rat brain synaptosome (hippocampus)
Type: biochemical
test-context: tritium-labeled NE 12 nM, 37° C. ten minutes, read-out: 50% inhibitory concentration
experimental-endpoint: IC50 (nM)

Some solved entries appear below for comparison.
INSERT INTO assay_data (compound, quantitative_result) VALUES
  ('c1cc(N2CC3(CCC3)N[C@H]3CCCC[C@@H]32)c2ccoc2c1 [Example 1047]', 0.7),
  ('CC1(C)CN(c2ccc3[nH]c(C#N)cc3c2)[C@@H]2CCCC[C@@H]2N1 [Example 654]', 1),
  ('Cc1c(Cl)cccc1N1CC(C)(C)N[C@H]2CCCC[C@H]21 [Example 468]', 7.5);

A: CC1(C)CN(c2ccc3sccc3c2)C2COCC2N1 (centres unmarked) [Example 8]
B: COc1cc2ccc(N3CC(C)(C)N[C@H]4CCCC[C@H]43)cc2cc1C#N [Example 610]
C: CC1(C)CN(c2cccc3occc23)[C@H]2CCCC[C@@H]2N1 [Example 191]
Problem: // ranking: key=IC50, reverse=True Provide the ranking by listing each label in its place in the requested order.
Result: A, B, C

A: c1cc2cc(N3CC4(CCCC4)N[C@H]4CCCC[C@@H]43)ccc2s1 (relative stereo) [Example 307]
B: CC1(C)CN(c2ccc(F)c3ccccc23)[C@H]2CCCC[C@@H]2N1 (relative stereo) [Example 409]
Problem: Could you determine which record has the numerically smaller IC50? Candidates: A and B Let me know the label of the one you choose.
Result: B

* * *

target-system: Norepinephrine (NE) uptake (Rattus norvegicus)
experiment-summary: Norepinephrine (NE) uptake inhibitory activity using rat brain synaptosome (hippocampus)
Assay type: biochemical
test-context: tritium-labeled NE 12 nM, 37° C. ten minutes, read-out: 50% inhibitory concentration
experimental-endpoint: IC50 (nM)

I: CC1(C)CN(c2ccc3cc[nH]c3c2)[C@H]2CCCC[C@H]2N1
II: CC[C@@H]1CN(c2ccc3ccccc3c2)[C@H]2CCCC[C@@H]2N1C (relative stereo)
III: CC1(C)CN(c2ccc(Cl)c(Cl)c2)C2CCCC2N1 (stereo not drawn)
IV: CC1(C)CN(c2cccc3sccc23)[C@H]2CCCC[C@H]2N1
Problem: Sort key: IC50. Order: high to low. Scope: items listed above. Put the labels in the requested order and write them down.
Result: II, III, I, IV

* * *

target-system: Dopamine (DA) uptake (Rattus norvegicus)
Construct: The suspension was used as a crude synaptosome fraction
Sequence (P23977 whole entry): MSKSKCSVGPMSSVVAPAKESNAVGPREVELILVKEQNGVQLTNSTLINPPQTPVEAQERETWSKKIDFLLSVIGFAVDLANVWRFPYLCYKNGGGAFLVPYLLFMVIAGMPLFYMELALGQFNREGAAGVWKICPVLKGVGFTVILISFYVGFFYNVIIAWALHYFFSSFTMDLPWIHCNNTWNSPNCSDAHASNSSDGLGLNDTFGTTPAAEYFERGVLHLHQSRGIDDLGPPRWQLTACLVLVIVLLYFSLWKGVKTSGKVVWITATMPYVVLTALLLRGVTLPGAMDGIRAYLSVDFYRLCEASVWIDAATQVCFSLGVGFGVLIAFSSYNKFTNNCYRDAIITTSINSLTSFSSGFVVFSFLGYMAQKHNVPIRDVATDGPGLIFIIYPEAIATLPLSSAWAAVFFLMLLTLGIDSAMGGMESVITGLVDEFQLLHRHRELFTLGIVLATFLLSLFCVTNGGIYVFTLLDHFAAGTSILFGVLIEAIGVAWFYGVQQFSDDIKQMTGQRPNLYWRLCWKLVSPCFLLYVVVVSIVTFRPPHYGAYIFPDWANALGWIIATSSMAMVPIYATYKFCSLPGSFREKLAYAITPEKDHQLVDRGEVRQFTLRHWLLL
experiment-summary: Dopamine (DA) uptake inhibitory activity using rat brain synaptosome (corpus striatum)
test-context: tritium-labeled DA 2 nM, 37° C. ten minutes, read-out: 50% Inhibitory concentration
pIC50: −log10 of the molar value.
experimental-endpoint: pIC50

The following compounds have reported results that may help.
INSERT INTO results (compound, experimental_endpoint, quantitative_result) VALUES
  ('c1cc2cc(N3CC4(CCCC4)N[C@H]4CCCC[C@@H]43)ccc2s1 (relative stereo)', 'pIC50', 7.17),
  ('CC1(C)CN(c2cccc3ccsc23)[C@@H]2CCCC[C@@H]2N1', 'pIC50', 7.32);

A: CC1(C)CN(c2ccc(Cl)c(Cl)c2)C2CCCC2N1 (stereo not drawn)
B: CC1(C)CN(c2ccc3sccc3c2)[C@@H]2CCCCC[C@@H]2N1 (racemic)
Problem: Hello, I am sorting some records. Could you say if A or B has the smaller pIC50 value? Write down the label attached to your selection.
Result: A
(A: 7.19, B: 8.01)

* * *

target-system: Norepinephrine (NE) uptake (Rattus norvegicus)
experiment-summary: Norepinephrine (NE) uptake inhibitory activity using rat brain synaptosome (hippocampus)
Assay type: biochemical
test-context: tritium-labeled NE 12 nM, 37° C. ten minutes, read-out: 50% inhibitory concentration
Procedure: Measurement of Norepinephrine (NE) Uptake Inhibitory Activity of Test Compound Using Rat Brain Synaptosome Male Wistar rats were decapitated, and their brains were removed and dissected to remove the hippocampus. The separated hippocampus was placed in a 20-fold weight of a 0.32 molarity (M) sucrose solution and homogenized with a potter homogenizer. The homogenate was centrifuged at 1000 g at 4° C. for 10 minutes, and the supernatant was further centrifuged at 20000 g at 4° C. for 20 minutes. […]
pIC50: −log10 of the molar value. Structures can show the parent of a compound that is named as a salt.
experimental-endpoint: pIC50

I: CN1[C@@H]2CCCC[C@@H]2N(c2cccc3occc23)CC1(C)C
II: CC1(C)CN(c2ccc(OC(F)F)c(F)c2)[C@H]2CCCC[C@@H]2N1 [Example 587, dihydrochloride]
III: C[C@@H]1CN(c2ccc3ccc(C#N)cc3c2)[C@H]2CCCC[C@@H]2N1
Problem: Rank items: key pIC50, increasing. Give the labels in the order specified.
Result: III, I, II

P: C[C@@H]1CN(c2ccc(F)c3ccccc23)[C@H]2CCCC[C@@H]2N1
Q: CC1(C)CN(c2ccc(F)c(Cl)c2)[C@@H]2CCCC[C@@H]2N1 [Example 112, hydrochloride]
R: CC1(C)CN(c2cccc3ccccc23)[C@H]2CCCC[C@H]2N1
S: Cc1noc(-c2ccc(N3C[C@@H](C)N[C@H]4CCCC[C@@H]43)cc2)n1
T: CN1[C@@H]2CCCC[C@@H]2N(c2cccc3sccc23)CC1(C)C
Problem: # rank_down: sort by pIC50, max first Please list the labels in the order you were asked to rank them.
Result: T, R, P, S, Q

a: CC1(C)CN(c2ccc3sccc3c2)[C@H]2CCCCC[C@@H]2N1 (relative stereo)
b: CC1(C)CN(c2csc3ccccc23)[C@H]2CCCC[C@H]2N1
c: C[C@@H]1CN(c2ccc3sccc3c2)[C@H]2CCCC[C@@H]2N1 (relative stereo) [Example 285]
d: CC1(C)CN(c2ccc3sccc3c2)[C@H]2CCC[C@@H]2N1 (relative stereo)
Problem: rank_up(items): orders items by reported pIC50 in ascending numerical order. // respond by listing labels in the order requested
Result: d, a, c, b
(d: 7.84, a: 8.34, c: 8.85, b: 9.05)

A: CC1(C)CN(c2ccc(O)c(Cl)c2)[C@H]2CCCC[C@@H]2N1
B: COc1ccc(N2CC3(CCC3)N[C@H]3CCCC[C@H]32)c2ccoc12
C: CC1(C)CN(c2ccc(F)c3[nH]ccc23)[C@H]2CCCC[C@@H]2N1
D: CC1(C)CN(c2ccc3cc(C#N)oc3c2)[C@@H]2CCCC[C@@H]2N1
Problem: Number of compounds to sort: 4. Sort criterion: pIC50, ascending. Could you list the labels in the order requested?
Result: D, B, C, A

I: CC1(C)CN(c2ccc3ncsc3c2)[C@H]2CCCC[C@@H]2N1 (racemic)
II: CC1(C)CN(c2cccc3occc23)[C@@H]2CCCC[C@@H]2N1 (relative stereo)
Problem: Endpoint returns the identifier whose pIC50 is numerically larger, either I or II . # reply format: chosen label
Result: II
(II: 9.15, I: 8.36)

* * *

target-system: Norepinephrine (NE) uptake (Rattus norvegicus)
experiment-summary: Norepinephrine (NE) uptake inhibitory activity using rat brain synaptosome (hippocampus)
Assay type: biochemical
test-context: tritium-labeled NE 12 nM, 37° C. ten minutes, read-out: 50% inhibitory concentration
experimental-endpoint: IC50 (nM)

Example entries and their recorded answers appear below.
INSERT INTO results (molecule, target_system, experimental_endpoint, quantitative_result) VALUES
  ('CC1(C)CN(c2cccc3occc23)[C@H]2CCCC[C@H]2N1', 'Norepinephrine (NE) uptake (Rattus norvegicus)', 'IC50', 0.7),
  ('CC1(C)CN(c2ccc3ccsc3c2)[C@H]2CCCC[C@@H]2N1', 'Norepinephrine (NE) uptake (Rattus norvegicus)', 'IC50', 0.8);

I: CC1(C)CN(c2csc3ccccc23)[C@@H]2CCCC[C@@H]2N1 [Example 717]
II: CC1(C)CCN(c2ccc(Cl)c(Cl)c2)[C@@H]2CCCC[C@@H]2N1 (relative stereo)
III: CC1(C)CN(c2ccc3[nH]c(C#N)cc3c2)[C@H]2CCCC[C@H]2N1
Problem: Rank entries according to their IC50, from the largest number down. Form field (ranking): labels in requested order.
Result: II, I, III
(II: 40.1 nM, I: 4.8 nM, III: 3 nM)

* * *

target-system: Dopamine (DA) uptake (Rattus norvegicus)
Construct: The suspension was used as a crude synaptosome fraction; from tissue; host or cells: rat (male Wistar) corpus striatum, crude synaptosome fraction
experiment-summary: Dopamine (DA) uptake inhibitory activity using rat brain synaptosome (corpus striatum)
Type: biochemical
test-context: tritium-labeled DA 2 nM, 37° C. ten minutes, read-out: 50% Inhibitory concentration
Experimental: Measurement of Dopamine (DA) Uptake Inhibitory Activity of Test Compound Using Rat Brain Synaptosome Male Wistar rats were decapitated, and their brains were removed and dissected to remove the corpus striatum. The separated corpus striatum was placed in a 20-fold weight of a 0.32 molarity (M) sucrose solution and homogenized with a potter homogenizer. The homogenate was centrifuged at 1000 g at 4° C. for 10 minutes, and the supernatant was further centrifuged at 20000 g at 4° C. for 20 minutes. […]
pIC50: −log10 of the molar value.
experimental-endpoint: pIC50

INSERT INTO measurements (compound, experimental_endpoint, quantitative_result) VALUES
  ('C[C@@H]1CN(c2ccc3ncsc3c2)[C@H]2CCCC[C@@H]2N1 [Example 1326]', 'pIC50', 7.04),
  ('CC1(C)CN(c2ccc(Cl)c(Cl)c2)[C@H]2CCC[C@@H]2N1 (racemic) [Example 15]', 'pIC50', 7.16),
  ('CC1(C)CCN(c2ccc(Cl)c(Cl)c2)[C@@H]2CCCC[C@@H]2N1 (relative stereo) [Example 322]', 'pIC50', 7.17),
  ('CC1(C)CN(c2ccc(F)c3occc23)[C@H]2CCCC[C@@H]2N1 [Example 192]', 'pIC50', 8.07),
  ('CC1(C)CN(c2ccc(Cl)c3occc23)[C@H]2CCCC[C@@H]2N1 [Example 193]', 'pIC50', 8.24);
